PROTOCOL: Relative viability of PBMCs by FACS analysis
Type: cell-based
CONDITION INFO: 30 μM EA, 24 h, culture = 100%
QUANTITY MEASURED: viability at 24 h, 30 μM (%)

COMPOUND	MEASURED VALUE
C=C(CC)C(=O)c1ccc(OCC(=O)O)c(Cl)c1Cl [EA]	98.9

###

PROTOCOL: Relative viability of PBMCs by FACS analysis
Format: cell-based
CONDITION INFO: 30 μM EA, 72 h, culture = 100%
QUANTITY MEASURED: viability at 72 h, 30 μM (%)

COMPOUND	MEASURED VALUE
C=C(CC)C(=O)c1ccc(OCC(=O)O)c(Cl)c1Cl [EA]	89.5

###

PROTOCOL: Relative viability of PBMCs by FACS analysis
Format: cell-based
CONDITION INFO: 10 μM cic, 48 h, culture = 100%
QUANTITY MEASURED: viability at 48 h, 10 μM (%)

SMILES INPUT	UNIT ABBREVIATION	MEASURED VALUE
Cc1cc(C2CCCCC2)n(O)c(=O)c1	%	98.3
